Target protein (sequence): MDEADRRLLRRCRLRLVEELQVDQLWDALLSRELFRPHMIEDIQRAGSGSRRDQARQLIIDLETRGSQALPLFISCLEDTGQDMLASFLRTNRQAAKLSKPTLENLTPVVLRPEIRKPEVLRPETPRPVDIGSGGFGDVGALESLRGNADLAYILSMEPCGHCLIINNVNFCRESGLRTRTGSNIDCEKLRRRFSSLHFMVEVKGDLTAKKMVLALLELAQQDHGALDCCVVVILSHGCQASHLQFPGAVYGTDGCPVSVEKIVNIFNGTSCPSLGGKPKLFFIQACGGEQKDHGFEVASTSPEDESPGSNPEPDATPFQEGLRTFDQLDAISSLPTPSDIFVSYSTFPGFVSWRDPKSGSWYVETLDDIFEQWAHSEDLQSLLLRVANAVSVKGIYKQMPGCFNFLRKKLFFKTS
quantity.name: IC50 (nM)
Write the value in nM as a bare number.

I have this compound here, `CC(C)[C@H](NC(=O)c1ccc2ccccc2n1)C(=O)N[C@@H](CC(=O)O)C(=O)COc1c(F)cccc1F` , and I need its recorded IC50.
310
